target: EGFR (form in the assay not stated) (human, UniProt P00533 25-645, limits assumed); assay: ELISA, NEM conjugate 10 nM
Measurement Type: binding ratio vs parent P54AR4-83v2
Hey, just the number and the unit after it is fine.

Ask: Dear colleague, I am looking for the recorded binding ratio vs parent P54AR4-83v2 of the following binder: P54AR4-83v2 A26C, NEM conjugate (designed binder, NEM on Cys 26, His-tagged) LPAPKNLVVSEVTEDSARLSWDDPWCFYESFLIQYQESEKVGEAIVLTVPGSERSYDLTGLKPGTEYTVSIYGVHNVYKDTNMRGLPLSAIFTT
Result: 0.95 ratio

Ask: Form field: reported binding ratio vs parent P54AR4-83v2 of P54AR4-83v2 A3C, NEM conjugate (designed binder, NEM on Cys 3, His-tagged) LPCPKNLVVSEVTEDSARLSWDDPWAFYESFLIQYQESEKVGEAIVLTVPGSERSYDLTGLKPGTEYTVSIYGVHNVYKDTNMRGLPLSAIFTT
Result: 0.34 ratio

Ask: # lookup: binding ratio vs parent P54AR4-83v2 of P54AR4-83v2 Y72C, NEM conjugate (designed binder, NEM on Cys 72, His-tagged) LPAPKNLVVSEVTEDSARLSWDDPWAFYESFLIQYQESEKVGEAIVLTVPGSERSYDLTGLKPGTEYTVSICGVHNVYKDTNMRGLPLSAIFTT
Result: 0.93 ratio

Ask: // query binding ratio vs parent P54AR4-83v2 value for entry P54AR4-83v2 K5C, NEM conjugate (designed binder, NEM on Cys 5, His-tagged) LPAPCNLVVSEVTEDSARLSWDDPWAFYESFLIQYQESEKVGEAIVLTVPGSERSYDLTGLKPGTEYTVSIYGVHNVYKDTNMRGLPLSAIFTT
Result: 0.61 ratio

Ask: Reported binding ratio vs parent P54AR4-83v2, binder P54AR4-83v2 R54C, NEM conjugate (designed binder, NEM on Cys 54, His-tagged) LPAPKNLVVSEVTEDSARLSWDDPWAFYESFLIQYQESEKVGEAIVLTVPGSECSYDLTGLKPGTEYTVSIYGVHNVYKDTNMRGLPLSAIFTT : ____
Result: 0.89 ratio

Ask: Requested read-out: binding ratio vs parent P54AR4-83v2. Entry: P54AR4-83v2 F27C, NEM conjugate (designed binder, NEM on Cys 27, His-tagged) LPAPKNLVVSEVTEDSARLSWDDPWACYESFLIQYQESEKVGEAIVLTVPGSERSYDLTGLKPGTEYTVSIYGVHNVYKDTNMRGLPLSAIFTT
Result: 0 ratio

Ask: Item P54AR4-83v2 N82C, NEM conjugate (designed binder, NEM on Cys 82, His-tagged) LPAPKNLVVSEVTEDSARLSWDDPWAFYESFLIQYQESEKVGEAIVLTVPGSERSYDLTGLKPGTEYTVSIYGVHNVYKDTCMRGLPLSAIFTT has what recorded binding ratio vs parent P54AR4-83v2?
Result: 0.56 ratio

Ask: Any idea what binding ratio vs parent P54AR4-83v2 was measured for P54AR4-83v2 S38C, NEM conjugate (designed binder, NEM on Cys 38, His-tagged) LPAPKNLVVSEVTEDSARLSWDDPWAFYESFLIQYQECEKVGEAIVLTVPGSERSYDLTGLKPGTEYTVSIYGVHNVYKDTNMRGLPLSAIFTT ?
Result: 0.8 ratio

Ask: Can you share its binding ratio vs parent P54AR4-83v2? I mean this binder: P54AR4-83v2 E43C, NEM conjugate (designed binder, NEM on Cys 43, His-tagged) LPAPKNLVVSEVTEDSARLSWDDPWAFYESFLIQYQESEKVGCAIVLTVPGSERSYDLTGLKPGTEYTVSIYGVHNVYKDTNMRGLPLSAIFTT
Result: 0.68 ratio

Value source: patent US20170362301A1
